test system: SKBR-3; assay: MTT assay, SKBR-3 breast cancer cells; assay type: cell-based; settings: Homo sapiens, SK-BR-3; 10 μM, 72 h after the treatment, MTT, mean of three independent experiments; read-out: Percentage of cell viability SKBR-3

{"columns": ["structure-notation", "viability at 10 µM"],
 "data": [
  ["COc1ccc(Nc2nc(N)nc(-c3ccc(OC(F)(F)F)cc3)n2)cc1", "88%"],
  ["CC(C)(C)c1ccc(-c2nc(N)nc(Nc3ccccc3)n2)cc1", "100%"],
  ["COc1ccc(-c2nc(N)nc(Nc3ccc(C(C)C)cc3)n2)cc1", "86%"],
  ["Nc1nc(Nc2ccc(Cl)cc2)nc(-c2ccc(C(F)(F)F)cc2)n1", "77%"],
  ["Nc1nc(Nc2ccc(F)cc2)nc(-c2cccc(F)c2)n1", "100%"],
  ["COc1ccccc1Nc1nc(N)nc(-c2ccc(C(F)(F)F)cc2)n1", "85%"],
  ["COc1ccc(Nc2nc(N)nc(-c3ccc(C(C)(C)C)cc3)n2)cc1", "85%"],
  ["CC(C)c1ccc(Nc2nc(N)nc(-c3ccc(F)cc3)n2)cc1", "100%"],
  ["Cc1ccc(-c2nc(N)nc(Nc3ccc(F)cc3)n2)cc1", "78%"]
]}
